Value Type: MDR1-MDCK efflux ratio

Solved cases (4 shown):
smi=CC(C)OC(=O)N1CCC(Oc2ncnc3c2cnn3-c2ccc(S(C)(=O)=O)cc2F)CC1 readout_value=1.61
smi=COc1nc(C)nc(N(C)Cc2nccs2)c1C readout_value=0.467
smi=COc1ncnc(C)c1-c1cccc(OC(C)C)c1 readout_value=0.634
smi=CC1(C)[C@@H]2C[C@H]1[C@@]1(O)[C@@H](C2)Oc2c(ccc(O)c2C(=O)NCCNS(C)(=O)=O)[C@@H]1O readout_value=91

a. O=C(CCCc1nnc(-c2ccccc2)o1)Nc1cccc2ccccc12
b. CN(Cc1ccc(C(=O)O)cc1)C(=O)c1ccnn1C
c. Cc1ccsc1C(=O)Nc1nc2ccccc2s1
d. Cn1cc(-c2cn3nccc3c(-c3cnn([C@]4(CC#N)C[C@@H](C#N)C4)c3)n2)cn1
Req: Hello, I need these entries ordered by MDR1-MDCK efflux ratio, highest reading first. Thanks! Return value: ordered labels per request.
Resp: d, a, b, c
(d: 53.3, a: 0.976, b: 0.663, c: 0.136)

A. CCOCC(=O)NCc1cc(C2CC2)n(C2CCCC2)n1
B. c1ccc(Oc2cccc(CN(CCN3CCOCC3)Cc3cccnc3)c2)cc1
Req: Please choose the item with the lower MDR1-MDCK efflux ratio value from this pair: A and B State the label of the item chosen.
Resp: A
(A: 0.768, B: 1.33)

====

Value Type: intrinsic clearance, human liver microsomes (mL/min/kg)

Here is how some compounds turned out for intrinsic clearance, human liver microsomes.
compound=O=C1CCC(=O)N1CCSc1ncc(-c2ccc(F)cc2)[nH]1 readout_value=35.6
compound=CCOc1cc(N2CCOC3(CCCC3)C2)ncn1 readout_value=37.4
compound=Cc1ccc(-c2nc(C(=O)N3CCc4ccccc4C3)cs2)o1 readout_value=187
compound=COc1ccc(C)cc1-n1ccc(C(=O)NC(C)C)n1 readout_value=62.5
compound=O=C(NCC1CCC1)c1ccc(-n2ccnc2)nn1 readout_value=8.32
compound="Cn1ccc(C(=O)N2CCCC(c3cccc(-c4cccc(Cl)c4)n3)C2)n1 (stereo unspecified)" readout_value=63
compound=O=C(NCCCn1ccnc1)N1CC2(CCCC2)c2ccccc21 readout_value=68.9
compound=O=S(=O)(N1CCOCC1)N1CCN(Cc2ccccc2F)CC1 readout_value=21
compound=COc1ccccc1-c1nn(-c2ccccc2)cc1CO readout_value=42.1
compound="CN(C)c1cccc(C(=O)N2CCCC(c3cccc(-c4cccs4)n3)C2)c1 (stereo unspecified)" readout_value=499

A. Cc1ccc(F)cc1NCc1csc(-c2cnn(C)c2)n1
B. CN(Cc1cnn(C)c1)C(=O)c1ccccc1-c1ccccc1C#N
Req: Between these two entries, A and B , state which has the higher intrinsic clearance, human liver microsomes. Indicate your choice by writing its label.
Resp: B
(B: 64 mL/min/kg, A: 40.2 mL/min/kg)

1. C#CCNC(=O)Cc1coc2cc(OC)ccc12
2. c1cc(CNc2ncc(-c3cnccn3)c(C3CC3)n2)ccn1
3. Cc1cc(C(=O)NC2CCN(c3ncnc4sc(C)c(C)c34)CC2)on1
4. O=C(NCCc1ccc2c(c1)OCCO2)c1ccc2ccccc2n1
Req: Please order the records by their reported intrinsic clearance, human liver microsomes, lowest number first. In your reply, arrange the labels in the requested order.
Resp: 1, 2, 3, 4

I. CN(C)CCOc1cc(-c2cn[nH]c2)ccc1NC(=O)C1COc2ccccc2O1 (stereo unspecified)
II. COc1ccc(CCn2c(C)c3c(=O)n(-c4nc5ccccc5s4)[nH]c3cc2=O)cc1
Req: Which of these two has the smaller recorded intrinsic clearance, human liver microsomes: I or II ? Return value: the label identifying the chosen record.
Resp: I
(I: 19.9 mL/min/kg, II: 53.7 mL/min/kg)

1. CNC(=O)c1sc2ncccc2c1[C@H]1CC[C@H](CNC(=O)CCc2ccccc2)CC1
2. COc1ccc(CC2CN3CCN(C(=O)OCc4ccccc4)CC3CO2)cc1 (stereo unspecified)
Req: When their intrinsic clearance, human liver microsomes values are compared, which is larger, 1 or 2 ? // respond with label for picked entry
Resp: 1
(1: 206 mL/min/kg, 2: 33.2 mL/min/kg)
